Data provenance is ChEMBL document CHEMBL4477203.

# system: Neuropeptide Y receptor type 2 (Homo sapiens, UniProt P49146)
# Sequence (P49146 whole entry): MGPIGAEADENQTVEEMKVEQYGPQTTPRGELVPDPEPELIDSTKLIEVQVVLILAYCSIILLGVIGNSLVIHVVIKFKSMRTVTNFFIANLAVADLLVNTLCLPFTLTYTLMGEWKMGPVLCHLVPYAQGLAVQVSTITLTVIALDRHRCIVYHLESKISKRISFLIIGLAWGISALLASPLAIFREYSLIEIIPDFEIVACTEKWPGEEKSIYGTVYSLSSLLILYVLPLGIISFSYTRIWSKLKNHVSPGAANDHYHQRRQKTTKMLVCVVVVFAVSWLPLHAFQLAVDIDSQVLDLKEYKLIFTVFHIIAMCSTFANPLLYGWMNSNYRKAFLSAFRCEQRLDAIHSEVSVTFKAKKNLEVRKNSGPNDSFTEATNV
# assay-name: Displacement of [3H]propionyl-pNPY from human NPY Y2 receptor expressed in CHO cells co-expressing Gqi5-mtAEQ after 90 mins by liquid scintillation counting
# Assay type: cell-based
Numbered stars: 1 amine (or outer) side, 2 acyl side, 3 side chain; on linkers, the order of the positions; unused ones are H or OH. Bridge positions count the residues as written; N and C are the ends. Peptide text beside a SMILES is read from it. I, II: the chains in the order shown. Suberoyl = O=C(CCCCCCC(=O)[*:2])[*:1]
Readings of pKi for the listed compounds
FYI, pKi means -log10 of a concentration in mol per litre.

CC(C)C[C@H](NC(=O)[C@H](CCCNC(=N)N)NC(=O)[C@H](Cc1ccc(O)cc1)NC(=O)CCCCCCC(=O)N[C@@H](Cc1ccc(O)cc1)C(=O)N[C@@H](CCCNC(=N)N)C(=O)N[C@@H](CC(C)C)C(=O)N[C@@H](CCCNC(=N)N)C(=O)N[C@@H](Cc1ccc(O)cc1)C(N)=O)C(=O)N[C@@H](CCCNC(=N)N)C(=O)N[C@@H](Cc1ccc(O)cc1)C(N)=O (I: YRLRY-NH2 / II: YRLRY-NH2; linker I:N-II:N via Suberoyl); 5.77

Now consider a different compound.
The compound listed as CC(C)C[C@H](NC(=O)[C@H](CCCNC(=N)N)NC(=O)[C@H](Cc1ccc(O)cc1)NC(=O)[C@@H](N)CCCC[C@H](N)C(=O)N[C@@H](Cc1ccc(O)cc1)C(=O)N[C@@H](CCCNC(=N)N)C(=O)N[C@@H](CC(C)C)C(=O)N[C@@H](CCCNC(=N)N)C(=O)N[C@@H](Cc1ccc(O)cc1)C(N)=O)C(=O)N[C@@H](CCCNC(=N)N)C(=O)N[C@@H](Cc1ccc(O)cc1)C(N)=O shows pKi equal to 6.02

---

# system: Neuropeptide Y receptor type 2 (Homo sapiens, UniProt P49146)
# assay-name: Displacement of [3H]propionyl-pNPY from human NPY Y2 receptor expressed in CHO cells co-expressing Gqi5-mtAEQ after 90 mins by liquid scintillation counting
# Type: cell-based
Numbered stars: 1 amine (or outer) side, 2 acyl side, 3 side chain; on linkers, the order of the positions; unused ones are H or OH. Bridge positions count the residues as written; N and C are the ends. Peptide text beside a SMILES is read from it. I, II: the chains in the order shown. Suberoyl = O=C(CCCCCCC(=O)[*:2])[*:1]
quantity: Ki

Example cases with answers are listed next.
CC(C)C[C@H](NC(=O)[C@H](C)NC(=O)[C@H](Cc1ccc(O)cc1)NC(=O)CCCCCCC(=O)N[C@@H](Cc1ccc(O)cc1)C(=O)N[C@@H](CCCNC(=N)N)C(=O)N[C@@H](CC(C)C)C(=O)N[C@@H](CCCNC(=N)N)C(=O)N[C@@H](Cc1ccc(O)cc1)C(N)=O)C(=O)N[C@@H](CCCNC(=N)N)C(=O)N[C@@H](Cc1ccc(O)cc1)C(N)=O (I: YALRY-NH2 / II: YRLRY-NH2; linker I:N-II:N via Suberoyl); > 3 µM
CC(C)C[C@H](NC(=O)[C@H](CCCNC(=N)N)NC(=O)[C@H](Cc1ccc(O)cc1)NC(=O)CCCCCCC(=O)N[C@@H](Cc1ccc(O)cc1)C(=O)N[C@@H](CCCNC(=N)N)C(=O)N[C@@H](CC(C)C)C(=O)N[C@@H](CCCNC(=N)N)C(=O)N[C@@H](Cc1ccc(O)cc1)C(N)=O)C(=O)N[C@@H](C)C(=O)N[C@@H](Cc1ccc(O)cc1)C(N)=O (I: YRLAY-NH2 / II: YRLRY-NH2; linker I:N-II:N via Suberoyl); > 3 µM

Record summary for CC(C)C[C@H](NC(=O)[C@H](C)NC(=O)[C@H](Cc1ccc(O)cc1)NC(=O)CCCCCCC(=O)N[C@@H](Cc1ccc(O)cc1)C(=O)N[C@@H](C)C(=O)N[C@@H](CC(C)C)C(=O)N[C@@H](CCCNC(=N)N)C(=O)N[C@@H](Cc1ccc(O)cc1)C(N)=O)C(=O)N[C@@H](CCCNC(=N)N)C(=O)N[C@@H](Cc1ccc(O)cc1)C(N)=O (I: YALRY-NH2 / II: YALRY-NH2; linker I:N-II:N via Suberoyl) : reported Ki = > 10 µM
